- EXPERIMENTAL SYSTEM: human Proprotein Convertase Subtilisin-like/Kexin type 9 (UniProt Q8NBP7 31-692)
- Sequence (Q8NBP7 31-692): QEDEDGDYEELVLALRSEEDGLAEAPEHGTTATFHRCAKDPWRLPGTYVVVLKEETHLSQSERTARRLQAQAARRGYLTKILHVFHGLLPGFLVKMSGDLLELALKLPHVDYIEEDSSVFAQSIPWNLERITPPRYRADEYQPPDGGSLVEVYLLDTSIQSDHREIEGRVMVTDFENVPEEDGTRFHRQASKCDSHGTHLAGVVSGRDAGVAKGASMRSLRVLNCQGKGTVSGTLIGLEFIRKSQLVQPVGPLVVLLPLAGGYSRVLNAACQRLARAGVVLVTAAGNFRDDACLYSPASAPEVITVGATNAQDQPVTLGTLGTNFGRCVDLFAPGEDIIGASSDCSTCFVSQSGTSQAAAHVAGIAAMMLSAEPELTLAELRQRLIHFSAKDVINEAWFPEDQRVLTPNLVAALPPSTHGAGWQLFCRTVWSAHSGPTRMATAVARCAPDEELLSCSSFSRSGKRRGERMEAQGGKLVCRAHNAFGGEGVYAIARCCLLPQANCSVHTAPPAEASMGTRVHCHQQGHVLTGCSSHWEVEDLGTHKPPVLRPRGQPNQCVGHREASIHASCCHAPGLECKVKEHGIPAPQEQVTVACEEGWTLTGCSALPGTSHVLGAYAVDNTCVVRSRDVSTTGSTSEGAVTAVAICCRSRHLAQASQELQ
- TEST DESCRIPTION: ELISA
pEC50: −log10 of the molar value.

- BINDER: "Ab2 (antibody, V domains shown) VH: QSVEESGGRLVTPGTPLTLTCTVSGFSLSSYAMSWVRQAPGKGLEWIGIIDAIDNTYYASWAKGRFTISKTSTTVDLKMTSLTTGDTATYFCARASILGYSIATGFNIWGPGTLVTVSS VL: AYDMTQTPASVEVAVGGTVTIKCQASQSISSHLAWYQQKSGQPPKLLIYRASTLESGVSSRFKGSGSGTEFTLTISDLECADAATYYCQQGYGVSDVDNGFGGGTEVVVKR"
  pEC50: 10.03
- BINDER: "Ab4 (antibody, V domains shown) VH: QSVEESGGRLVTPGTPLTLTCTVSGIDLSSYAMIWVRQAPEKGLEYIGYIGGIDSTYYASWAKGRFTISKTSTTVDLKMTSPTTEDTATYFCGRWSGTSGYNTIWGPGTLVTVSS VL: DVVMTQTPASVEAAVGGTVTIKCQASQSIYSNLAWYQQKPGQPPKLLIYGASNLASGVSSRFKGSRSGTEYTLTISDLECADAATYYCQCTGGGDSGNTFGGGTEVVVKR"
  pEC50: 10.07
- BINDER: "Ab1 (antibody, V domains shown) VH: QSVEESGGRLVTPGTPLTLTCTVSGFSLSSYWMTWVRQAPGKGLEYIGIISSSGSTYYATWAKGRFTISKTSSTTVDLEITSPTTEDTATYFCARDSAFSSGLEFNIWGPGTLVTVSS VL: AYDLTQTPASVEVAVGGTVTIKCQASQSVYSNWLSWYQQKPGQPPKLLIYDASDLASGVPSRFKGSGSGTQFTLTISGVQCDDAATYYCQQGQSSSDIDNTFGGGTEVVVKR"
  pEC50: 9.93
- BINDER: "Ab3 (antibody, V domains shown) VH: QSVEESGGRLVTPGGSLTLTCTASGFSLSSYYMSWVRQAPGKGLEWIGIIYPSGSTYYASWAKGRFTISKTSTTVDLKITSPTVEDTATYFCARGGAYATLNLWGPGTLVTVSS VL: AVLTQTPSPVSAAVGGTVTISCQSSQSVYHNNLLSWYQQKPGQPPKLLIYDASKLTSGVSSRFSGSGSGTQFTLTISGVQCDDAATYYCLGGYDDDADNGFGGGTEVVVKR"
  pEC50: 9.98

Sourced from patent US20160194408A1
